Recorded DIGSA phytotoxicity rating (0-100) for the following molecules
- Tested on: large crabgrass (Digitaria sanguinalis, DIGSA)
- measurementProtocol: Post-emerge greenhouse herbicide test, phytotoxicity rating
- Assay type: in vivo
- condition: 63 g al/ha, 14 days after application
Answer with a bare number; do not write a unit.

Incoming: Look up DIGSA phytotoxicity rating (0-100): O=c1n(CCCF)nnn1-c1cc(Oc2ncccn2)c(Cl)cc1F
Outgoing: 50

Incoming: Reported DIGSA phytotoxicity rating (0-100), molecule COc1nc(OC)nc(Oc2cc(-c3nn(C)c(C(F)(F)F)c3Cl)c(F)cc2Cl)n1 : ____
Outgoing: 0

Incoming: What DIGSA phytotoxicity rating (0-100) value was documented for this molecule, N#Cc1cccnc1Oc1cc(-n2nnn(CCCF)c2=O)c(Cl)cc1Cl ?
Outgoing: 0

Incoming: // DIGSA phytotoxicity rating (0-100) lookup, key: O=c1n(CCCF)nnn1-c1cc(Oc2ncc(Br)cn2)c(Cl)cc1F
Outgoing: 0

Incoming: # DIGSA phytotoxicity rating (0-100) lookup, item O=c1n(CCCF)nnn1-c1cc(Oc2ncccc2[N+](=O)[O-])c(Cl)cc1Cl
Outgoing: 0

Incoming: Find the recorded DIGSA phytotoxicity rating (0-100) belonging to Cc1nsc(Oc2cc(-n3nnn(CCCF)c3=O)c(F)cc2Cl)c1[N+](=O)[O-] and report it.
Outgoing: 0

Incoming: Param item = N#Cc1cccnc1Oc1cc(-n2nnn(CCCF)c2=O)c(F)cc1Cl ; retrieve measured DIGSA phytotoxicity rating (0-100).
Outgoing: 0

Incoming: Which DIGSA phytotoxicity rating (0-100) value is on record for COc1cc(OC)nc(Oc2cc(-n3nnn(CCCF)c3=O)c(F)cc2Cl)n1 ?
Outgoing: 0

Incoming: Requested field: DIGSA phytotoxicity rating (0-100). Item: O=c1n(-c2cc(Oc3ccc([N+](=O)[O-])cc3)c(Cl)cc2F)c(=S)n2n1CCCC2
Outgoing: 0
